target-system: UniProt Q9UKV0
Sequence (Q9UKV0 whole entry): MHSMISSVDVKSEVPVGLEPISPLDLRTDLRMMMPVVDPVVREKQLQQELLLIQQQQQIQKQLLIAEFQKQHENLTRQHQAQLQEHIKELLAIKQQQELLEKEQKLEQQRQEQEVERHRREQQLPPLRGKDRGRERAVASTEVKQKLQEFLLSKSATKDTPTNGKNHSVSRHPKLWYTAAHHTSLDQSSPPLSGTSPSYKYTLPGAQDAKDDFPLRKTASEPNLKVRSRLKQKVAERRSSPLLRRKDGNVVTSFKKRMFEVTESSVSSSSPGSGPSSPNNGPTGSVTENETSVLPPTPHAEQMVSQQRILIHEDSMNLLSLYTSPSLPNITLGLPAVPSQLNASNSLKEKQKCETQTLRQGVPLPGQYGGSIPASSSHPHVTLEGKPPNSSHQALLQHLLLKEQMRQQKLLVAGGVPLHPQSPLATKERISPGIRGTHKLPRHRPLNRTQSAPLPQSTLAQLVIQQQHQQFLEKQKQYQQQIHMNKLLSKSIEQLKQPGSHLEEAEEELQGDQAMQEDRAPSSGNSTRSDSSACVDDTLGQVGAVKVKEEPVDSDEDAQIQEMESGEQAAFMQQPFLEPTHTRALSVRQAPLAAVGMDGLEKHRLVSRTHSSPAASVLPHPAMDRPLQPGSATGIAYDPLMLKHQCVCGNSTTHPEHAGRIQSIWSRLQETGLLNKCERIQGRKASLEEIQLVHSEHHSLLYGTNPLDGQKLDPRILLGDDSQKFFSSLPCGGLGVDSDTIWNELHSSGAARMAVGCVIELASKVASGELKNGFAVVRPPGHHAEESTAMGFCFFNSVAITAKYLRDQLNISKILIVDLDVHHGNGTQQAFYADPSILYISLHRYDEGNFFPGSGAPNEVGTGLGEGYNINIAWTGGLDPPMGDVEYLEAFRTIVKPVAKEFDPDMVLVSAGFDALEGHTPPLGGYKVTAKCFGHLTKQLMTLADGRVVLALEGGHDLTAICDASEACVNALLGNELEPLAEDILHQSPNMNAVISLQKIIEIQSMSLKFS
procedure-text: Inhibition of HDAC9 (unknown origin)
measure-name: IC50

Challenge: Any idea what its IC50 is? The molecule is O=C(NO)c1ccc(CN2c3ccccc3S(=O)(=O)C[C@@H]3CCCC[C@@H]32)cc1
Response given: > 8 µM

====

target-system: Histone deacetylase 2 (Homo sapiens, UniProt Q92769)
Sequence (Q92769 whole entry): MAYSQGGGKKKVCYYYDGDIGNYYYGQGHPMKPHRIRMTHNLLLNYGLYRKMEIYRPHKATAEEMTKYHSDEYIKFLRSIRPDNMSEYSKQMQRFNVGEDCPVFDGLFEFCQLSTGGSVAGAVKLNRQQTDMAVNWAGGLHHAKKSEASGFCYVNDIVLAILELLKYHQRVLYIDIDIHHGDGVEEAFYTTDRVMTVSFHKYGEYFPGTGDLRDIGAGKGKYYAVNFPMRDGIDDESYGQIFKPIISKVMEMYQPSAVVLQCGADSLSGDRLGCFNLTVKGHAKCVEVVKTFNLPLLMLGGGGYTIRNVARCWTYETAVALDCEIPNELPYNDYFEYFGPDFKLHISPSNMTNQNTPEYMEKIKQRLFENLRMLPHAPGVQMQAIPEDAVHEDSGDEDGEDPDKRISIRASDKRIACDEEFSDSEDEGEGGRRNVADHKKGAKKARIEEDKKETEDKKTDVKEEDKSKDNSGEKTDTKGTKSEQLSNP
procedure-text: Inhibition of human full-length recombinant HDAC2 using fluorogenic peptide ([…] residues) (RHKK(Ac)) as substrate by fluorescence method
measure-name: pIC50
Reminder that pIC50 is minus the log10 of a molar concentration.

Challenge: Any idea what its pIC50 is? The molecule is O=C(/C=C/c1cccn(CCCc2ccc3ccccc3c2)c1=O)NO
Response given: 6.89
